// data source = paper PMC10931833

For each of the molecules below, state its ΔS.
# experimental system: BSA (Bos taurus)
# Construct: purchased Millipore Sigma-Aldrich
# test summary: DSC thermal unfolding of BSA in water and aqueous solutions of ABS phase-forming components
# Format: physicochemical, bovine
# conditions used: 1.0 mg/mL BSA, 10 mM component

Item `OC[C@H]1O[C@@](CO)(O[C@H]2O[C@H](CO)[C@@H](O)[C@H](O)[C@H]2O)[C@@H](O)[C@@H]1O` : provide ΔS
1.878 KJ/(mol.K)

Note ΔS for the molecule shown: `CCn1cc[n+](C)c1.O=S(=O)([O-])C(F)(F)C(F)(F)C(F)(F)C(F)(F)F`
2.168 KJ/(mol.K)

Tell me ΔS reported for C[N+](C)(C)CCO.O=S(=O)([O-])C(F)(F)C(F)(F)C(F)(F)C(F)(F)F [[N1112(OH)][C4F9SO3]]
2.325 KJ/(mol.K)

Determine its reported ΔS: C[N+](C)(C)CCO.C[N+](C)(C)CCO.O=P([O-])(O)O.O=P([O-])(O)O [[N1112(OH)][H2PO4]]
1.479 KJ/(mol.K)

Read the entry CCCCn1cc[n+](C)c1.O=S(=O)([O-])C(F)(F)F [[C4C1Im][CF3SO3]] and write its reported ΔS.
1.468 KJ/(mol.K)

----------
# experimental system: BSA (Bos taurus)
# Construct: purchased Millipore Sigma-Aldrich
# test summary: Far-UV CD secondary structure of BSA (CONTIN-LL deconvolution)
# Format: physicochemical, bovine
# Design: unit not given here
# conditions used: 1.0 mg/mL BSA, 1 mM component, 25 °C
Consider the following compounds; for each one, report its Distorted Alpha Helix.

Give me measured Distorted Alpha Helix, please, for this compound: OC[C@H]1O[C@@](CO)(O[C@H]2O[C@H](CO)[C@@H](O)[C@H](O)[C@H]2O)[C@@H](O)[C@@H]1O [Sucrose, sucrose]
0.216

Specify reported Distorted Alpha Helix for the compound shown: C[N+](C)(C)CCO.O=S(=O)([O-])C(F)(F)C(F)(F)C(F)(F)C(F)(F)F [[N1112(OH)][C4F9SO3]]
0.225

Input `CCn1cc[n+](C)c1.O=S(=O)([O-])C(F)(F)C(F)(F)C(F)(F)C(F)(F)F` , output reported Distorted Alpha Helix.
0.210

Tell us which Distorted Alpha Helix value is on record for C[N+](C)(C)CCO.C[N+](C)(C)CCO.O=P([O-])(O)O.O=P([O-])(O)O [[N1112(OH)][H2PO4]]
0.210

Provide one value: measured Distorted Alpha Helix of CCCCn1cc[n+](C)c1.O=S(=O)([O-])C(F)(F)F [[C4C1Im][CF3SO3]]
0.215

----------
Would you mind telling me the reported Turns of each entry?
# experimental system: BSA (Bos taurus, UniProt P02769)
# Construct: purchased Millipore Sigma-Aldrich
# Sequence (P02769 25-607): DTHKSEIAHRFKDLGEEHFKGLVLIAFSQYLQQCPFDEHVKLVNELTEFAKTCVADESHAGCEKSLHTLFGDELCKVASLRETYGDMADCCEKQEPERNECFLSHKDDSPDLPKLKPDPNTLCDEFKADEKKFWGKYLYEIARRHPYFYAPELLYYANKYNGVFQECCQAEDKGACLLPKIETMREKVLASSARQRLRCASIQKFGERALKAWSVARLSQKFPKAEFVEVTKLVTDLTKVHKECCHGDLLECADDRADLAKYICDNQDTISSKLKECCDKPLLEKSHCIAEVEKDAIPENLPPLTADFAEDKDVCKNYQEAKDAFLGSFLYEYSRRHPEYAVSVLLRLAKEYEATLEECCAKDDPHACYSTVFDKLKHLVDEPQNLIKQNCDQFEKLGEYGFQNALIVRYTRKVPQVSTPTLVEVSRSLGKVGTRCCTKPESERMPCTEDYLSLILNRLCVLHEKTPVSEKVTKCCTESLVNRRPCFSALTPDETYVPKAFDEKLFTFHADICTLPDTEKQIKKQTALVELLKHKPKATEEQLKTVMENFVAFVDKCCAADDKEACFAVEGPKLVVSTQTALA
# test summary: Far-UV CD secondary structure of BSA (CONTIN-LL deconvolution)
# Assay type: physicochemical, bovine
# conditions used: 1.0 mg/mL BSA, 5 mM component, 25 °C

Provide Turns, system BSA (Bos taurus, UniProt P02769), entry C[N+](C)(C)CCO.C[N+](C)(C)CCO.O=P([O-])(O)O.O=P([O-])(O)O [[N1112(OH)][H2PO4]]
0.128

Determine reported Turns for C[N+](C)(C)CCO.O=S(=O)([O-])C(F)(F)C(F)(F)C(F)(F)C(F)(F)F [[N1112(OH)][C4F9SO3]] ; test system: BSA (Bos taurus, UniProt P02769).
0.139

Print BSA (Bos taurus, UniProt P02769) Turns for CCCCn1cc[n+](C)c1.O=S(=O)([O-])C(F)(F)F [[C4C1Im][CF3SO3]] .
0.136

Report Turns on BSA (Bos taurus, UniProt P02769) for this entry: `CCn1cc[n+](C)c1.O=S(=O)([O-])C(F)(F)C(F)(F)C(F)(F)C(F)(F)F`
0.138

Look up and report measured Turns (BSA (Bos taurus, UniProt P02769)) for the following compound: OC[C@H]1O[C@@](CO)(O[C@H]2O[C@H](CO)[C@@H](O)[C@H](O)[C@H]2O)[C@@H](O)[C@@H]1O [Sucrose, sucrose]
0.136
